- System: RAW264.7
- Test summary: Cytotoxicity against mouse RAW264.7 cells assessed as reduction in cell viability at 40 uM incubated for 24 hrs by MTT assay
- Assay type: toxicity, cell-based
- Condition context: raw264.7, 24 h
Property name: Activity

Below, 5 compounds whose answers are already recorded.
>>> df
                                   compound       tgt  property_name  assay_value
0  O=C1c2cc(NS(=O)(=O)c3cccc(F)c3)ccc2-n2c1nc1ccccc1c2=O  RAW264.7       Activity    Non-Toxic
1  O=C1c2ccccc2-n2c1nc1ccc(NS(=O)(=O)c3ccccc3F)cc1c2=O  RAW264.7       Activity    Non-Toxic
2  CC(C)(C)c1ccc(S(=O)(=O)Nc2ccc3c(c2)C(=O)c2nc4ccccc4c(=O)n2-3)cc1  RAW264.7       Activity    Non-Toxic
3  O=C1c2cc(NS(=O)(=O)c3ccccc3F)ccc2-n2c1nc1ccccc1c2=O  RAW264.7       Activity    Non-Toxic
4  O=C1c2cc(NS(=O)(=O)c3ccccc3C(F)(F)F)ccc2-n2c1nc1ccccc1c2=O  RAW264.7       Activity    Non-Toxic

Exam item: Give recorded Activity with RAW264.7 for the following compound: "O=C1c2ccccc2-n2c1nc1ccc(NS(=O)(=O)c3ccc(F)cc3)cc1c2=O"
Marked response: Non-Toxic

Exam item: Give recorded Activity with RAW264.7 for the following compound: "COc1ccc(S(=O)(=O)Nc2ccc3c(c2)C(=O)c2nc4ccccc4c(=O)n2-3)cc1"
Marked response: Non-Toxic

Exam item: Give recorded Activity with RAW264.7 for the following compound: "O=C1c2ccccc2-n2c1nc1ccc(NS(=O)(=O)c3cccc(F)c3)cc1c2=O"
Marked response: Non-Toxic

Exam item: Give recorded Activity with RAW264.7 for the following compound: "COc1ccc(S(=O)(=O)Nc2ccc3c(c2)C(=O)c2nc4ccccc4c(=O)n2-3)cc1OC"
Marked response: Non-Toxic

Exam item: Give recorded Activity with RAW264.7 for the following compound: "CC(C)c1cc(C(C)C)c(S(=O)(=O)Nc2ccc3c(c2)C(=O)c2nc4ccccc4c(=O)n2-3)c(C(C)C)c1"
Marked response: Non-Toxic

Exam item: Give recorded Activity with RAW264.7 for the following compound: "O=C1c2ccccc2-n2c1nc1ccc(NS(=O)(=O)c3ccccc3C(F)(F)F)cc1c2=O"
Marked response: Non-Toxic

Exam item: Give recorded Activity with RAW264.7 for the following compound: "CC(C)(C)c1ccc(S(=O)(=O)Nc2ccc3nc4n(c(=O)c3c2)-c2ccccc2C4=O)cc1"
Marked response: Non-Toxic

Exam item: Give recorded Activity with RAW264.7 for the following compound: "O=C1c2ccccc2-n2c1nc1ccc(NS(=O)(=O)c3ccccc3)cc1c2=O"
Marked response: Non-Toxic

Exam item: Give recorded Activity with RAW264.7 for the following compound: COc1ccc2c(c1)c(CC(=O)O)c(C)n2C(=O)c1ccc(Cl)cc1 [INDOMETHACIN]
Marked response: Non-Toxic

Exam item: Give recorded Activity with RAW264.7 for the following compound: "O=C1c2ccccc2-n2c1nc1ccc(NS(=O)(=O)c3ccc(OC(F)(F)F)cc3)cc1c2=O"
Marked response: Non-Toxic

Exam item: Give recorded Activity with RAW264.7 for the following compound: "Cc1ccc(S(=O)(=O)Nc2ccc3c(c2)C(=O)c2nc4ccccc4c(=O)n2-3)cc1"
Marked response: Non-Toxic

Exam item: Give recorded Activity with RAW264.7 for the following compound: "Cc1ccc(S(=O)(=O)Nc2ccc3nc4n(c(=O)c3c2)-c2ccccc2C4=O)cc1"
Marked response: Non-Toxic

Exam item: Give recorded Activity with RAW264.7 for the following compound: "COc1ccc(S(=O)(=O)Nc2ccc3nc4n(c(=O)c3c2)-c2ccccc2C4=O)cc1OC"
Marked response: Non-Toxic

Exam item: Give recorded Activity with RAW264.7 for the following compound: "COc1ccc(S(=O)(=O)Nc2ccc3c(c2)C(=O)c2nc4ccccc4c(=O)n2-3)c(OC)c1"
Marked response: Non-Toxic
